Hey, just so you know, these numbers are from patent US12258547B2.

# experimental-protocol: Experiments 2-3: HepaRG/BJ co-culture separated by GrowDex barrier, dosing via HepaRG, WST-1, HepaRG side
# Assay type: cell-based
# applied-conditions: human; highest concentration (500 μg/ml), 20 hrs; read-out: reduction of HepaRG viability

- compound-smiles: "CC(=O)Nc1ccc(O)cc1"
  cytotoxicity at 20 h, 500 μg/ml: "~10%"

* * *

# experimental-protocol: Experiments 2-3: HepaRG/BJ co-culture separated by GrowDex barrier, dosing via HepaRG, WST-1, BJ side
# applied-conditions: human, decrease of BJ viability, 10 μg/ml via HepaRG, 3 hrs
Counter-ions that a name gives are not always drawn.

- compound: "C#CCN(C)[C@H](C)Cc1ccccc1 [selegiline, Selegiline hydrochloride]"
  cytotoxicity at 3 h, 10 μg/ml: "~25%"

* * *

# experimental-protocol: Leakage Test 2: 3D-printed 1.5% GrowDex barriers, BJ cells outside, chemical dosed inside, WST-1
# Type: cell-based, Human
# applied-conditions: human, 200 μg/ml exposure, across barrier, read-out: reduction in BJ viability
Where a name gives a salt, the structure may show the parent alone.
measurement-label: cytotoxicity at 24 h, 200 μg/ml (%)

- compound: "CN(C)CCC=C1c2ccccc2CCc2ccccc21 [Amitriptyline hydrochloride]"
  quantitative-result: 16

* * *

# experimental-protocol: Leakage Test 2: 3D-printed 1.5% GrowDex barriers, BJ cells outside, chemical dosed inside, WST-1
# Format: cell-based, Human
# applied-conditions: human, 100 μg/ml dosed into other side of barrier, read-out: Viability % of Control
Structures can show the parent of a compound that is named as a salt.
Reported viability at 24 h, 100 μg/ml is given for each of the following compounds.
measurement-label: viability at 24 h, 100 μg/ml

- compound: "CN(C)CCC=C1c2ccccc2CCc2ccccc21 [Amitriptyline hydrochloride]"
  measurement-label: "viability at 24 h, 100 μg/ml"
  result: "90%"
- compound: "CCCCCCCCCCCCOS(=O)(=O)[O-].[Na+] [SDS, Sodium Dodecyl Sulfate]"
  measurement-label: "viability at 24 h, 100 μg/ml"
  result: "106%"

* * *

# experimental-protocol: Experiment 1: WST-1 viability of BJ fibroblast monoculture, direct exposure
# applied-conditions: human
Where a name gives a salt, the structure may show the parent alone.

- compound: "C#CCN(C)[C@H](C)Cc1ccccc1 [selegiline, Selegiline hydrochloride]"
  cytotoxicity at 500 μg/ml: "~10%"

* * *

Reported viability at 24 h, 200 μg/ml is given for each of the following molecules.
# experimental-protocol: Leakage Test 2: 3D-printed 1.5% GrowDex barriers, BJ cells outside, chemical dosed inside, WST-1
# Type: cell-based, Human
# applied-conditions: human, 200 μg/ml dosed into other side of barrier, read-out: Viability % of Control
Counter-ions that a name gives are not always drawn.
measurement-label: viability at 24 h, 200 μg/ml

- molecule: "CCCCCCCCCCCCOS(=O)(=O)[O-].[Na+] [SDS, Sodium Dodecyl Sulfate]"
  measurement-label: "viability at 24 h, 200 μg/ml"
  result: "118%"
- molecule: "CN(C)CCC=C1c2ccccc2CCc2ccccc21 [Amitriptyline hydrochloride]"
  measurement-label: "viability at 24 h, 200 μg/ml"
  result: "84%"
